# Protocol Details: acute toxicity in mice (oral, intraperitoneal)
# Test Context: mouse, in vivo, ip
LD50 values for the compounds below.
Experimental Endpoint: LD50 (mg/kg)

Compound	Reported
CC(=O)Oc1ccccc1C(=O)O [acetylsalicylic acid, reference compound]	1100
OC(Nc1nccs1)C(Cl)(Cl)Cl (centres unmarked)	708
